Tested on: Rattus norvegicus
Test: Antidiuretic activity in iv dosed rat
Type: ADME, organism-based, Urine
Conditions: in vivo
Positions of bridges follow the written chain, without caps; N, C: chain ends. Residues, ends and D or L forms follow the SMILES beside them.
valueType: Activity (U/mg)
Numbers only; they are read as U/mg.

Ask | Requested read-out: Activity. Entry: CC[C@H](C)[C@@H]1NC(=O)[C@H](Cc2ccc(O)cc2)NC(=O)[C@@H](N)CSSC[C@@H](C(=O)NCC(=O)N[C@@H](CC(C)C)C(=O)NCC(N)=O)NC(=O)[C@H](CC(N)=O)NC(=O)[C@H]([C@@H](C)O)NC1=O (H-CYITNCGLG-NH2; disulfide 1-6)
Reply | 0.002

====

The reader will find reported Activity values listed item by item below.
Species on record: Rattus norvegicus
Assay: Vasopressor activity in rat
Type: ADME, organism-based
Settings: in vivo
Starred links: 1 amine or outer side, 2 acyl side, 3 side chain; linkers in the order of their positions; H or OH if unused. Positions of bridges follow the written chain, without caps; N, C: chain ends. Residues, ends and D or L forms follow the SMILES beside them. X1 = O=C([C@H](O)CS[*:2])[*:1]
Numbers only; they are read as U/mg.

CC[C@H](C)[C@@H]1NC(=O)[C@H](Cc2ccc(O)cc2)NC(=O)[C@@H](N)CSSC[C@@H](C(=O)N2CCC[C@H]2C(=O)N[C@@H](CC(C)C)C(=O)NCC(N)=O)NC(=O)[C@H](CC(N)=O)NC(=O)[C@H]([C@@H](C)O)NC1=O (H-CYITNCPLG-NH2; disulfide 1-6) : 0.43

Proceed to the following item.
Ask | Requested read-out: Activity. Entry: CC[C@H](C)[C@@H]1NC(=O)[C@H](Cc2ccc(O)cc2)NC(=O)[C@H](O)CSSC[C@@H](C(=O)N2CCC[C@H]2C(=O)N[C@@H](CC(C)C)C(=O)NCC(N)=O)NC(=O)[C@H](CC(N)=O)NC(=O)[C@H]([C@@H](C)O)NC1=O (YITNCPLG-NH2; linker N-5 via X1)
Reply | 4.92

====

Tested on: Rattus norvegicus
Experiment: Antidiuretic activity in iv dosed rat
Type: ADME, organism-based, Urine
Details: in vivo
Starred links: 1 amine or outer side, 2 acyl side, 3 side chain; linkers in the order of their positions; H or OH if unused. Positions of bridges follow the written chain, without caps; N, C: chain ends. Residues, ends and D or L forms follow the SMILES beside them. X1 = O=C([C@H](O)CS[*:2])[*:1]
Classify as follows. Reported Activity greater than or equal to 2 U/mg: True. Reported Activity below: False.

CC[C@H](C)[C@@H]1NC(=O)[C@H](Cc2ccc(O)cc2)NC(=O)[C@@H](N)CSSC[C@@H](C(=O)NCC(=O)N[C@@H](CC(C)C)C(=O)NCC(N)=O)NC(=O)[C@H](CC(N)=O)NC(=O)[C@H](CCC(N)=O)NC1=O (H-CYIQNCGLG-NH2; disulfide 1-6) : False
CC[C@H](C)[C@@H]1NC(=O)[C@H](Cc2ccc(O)cc2)NC(=O)[C@H](O)CSSC[C@@H](C(=O)N2CCC[C@H]2C(=O)N[C@@H](CC(C)C)C(=O)NCC(N)=O)NC(=O)[C@H](CC(N)=O)NC(=O)[C@H]([C@@H](C)O)NC1=O (YITNCPLG-NH2; linker N-5 via X1) : True
CC[C@H](C)[C@@H]1NC(=O)[C@H](Cc2ccc(O)cc2)NC(=O)[C@@H](N)CSSC[C@@H](C(=O)N2CCC[C@H]2C(=O)N[C@@H](CC(C)C)C(=O)NCC(N)=O)NC(=O)[C@H](CC(N)=O)NC(=O)[C@H](CCC(N)=O)NC1=O [OXYTOCIN] : True
CC[C@H](C)[C@@H]1NC(=O)[C@H](Cc2ccc(O)cc2)NC(=O)[C@@H](N)CSSC[C@@H](C(=O)N2CCC[C@H]2C(=O)N[C@@H](CC(C)C)C(=O)NCC(N)=O)NC(=O)[C@H](CC(N)=O)NC(=O)[C@H]([C@@H](C)O)NC1=O (H-CYITNCPLG-NH2; disulfide 1-6) : False

Query compound follows.
Ask | Tell me whether Activity is at least 2 U/mg here: CC[C@H](C)[C@@H]1NC(=O)[C@H](Cc2ccc(O)cc2)NC(=O)[C@H](O)CSSC[C@@H](C(=O)NCC(=O)N[C@@H](CC(C)C)C(=O)NCC(N)=O)NC(=O)[C@H](CC(N)=O)NC(=O)[C@H]([C@@H](C)O)NC1=O (YITNCGLG-NH2; linker N-5 via X1)
Reply | False
